test: Acute toxicity LD50 in rats; details: rat, in vivo, ip; intraperitoneal administration in rats

STRUCTURE_STRING	LD50
CC(C)(C)c1cc(C(=O)Nc2nccs2)cc(C(C)(C)C)c1O	≥ 800 mg/kg

Sourced from patent US7511034B2
